Where do the numbers come from? From patent US20230364070A1.

Reported values of IC50 for individual entries
- Target Or Test System: pEGFR in Ba/F3 cells expressing EGFR exon 20 NPG Ins D770_N771 (Homo sapiens, UniProt P00533, INS770NPG)
- Sequence (P00533 with tags, fused parts or gaps INS770NPG): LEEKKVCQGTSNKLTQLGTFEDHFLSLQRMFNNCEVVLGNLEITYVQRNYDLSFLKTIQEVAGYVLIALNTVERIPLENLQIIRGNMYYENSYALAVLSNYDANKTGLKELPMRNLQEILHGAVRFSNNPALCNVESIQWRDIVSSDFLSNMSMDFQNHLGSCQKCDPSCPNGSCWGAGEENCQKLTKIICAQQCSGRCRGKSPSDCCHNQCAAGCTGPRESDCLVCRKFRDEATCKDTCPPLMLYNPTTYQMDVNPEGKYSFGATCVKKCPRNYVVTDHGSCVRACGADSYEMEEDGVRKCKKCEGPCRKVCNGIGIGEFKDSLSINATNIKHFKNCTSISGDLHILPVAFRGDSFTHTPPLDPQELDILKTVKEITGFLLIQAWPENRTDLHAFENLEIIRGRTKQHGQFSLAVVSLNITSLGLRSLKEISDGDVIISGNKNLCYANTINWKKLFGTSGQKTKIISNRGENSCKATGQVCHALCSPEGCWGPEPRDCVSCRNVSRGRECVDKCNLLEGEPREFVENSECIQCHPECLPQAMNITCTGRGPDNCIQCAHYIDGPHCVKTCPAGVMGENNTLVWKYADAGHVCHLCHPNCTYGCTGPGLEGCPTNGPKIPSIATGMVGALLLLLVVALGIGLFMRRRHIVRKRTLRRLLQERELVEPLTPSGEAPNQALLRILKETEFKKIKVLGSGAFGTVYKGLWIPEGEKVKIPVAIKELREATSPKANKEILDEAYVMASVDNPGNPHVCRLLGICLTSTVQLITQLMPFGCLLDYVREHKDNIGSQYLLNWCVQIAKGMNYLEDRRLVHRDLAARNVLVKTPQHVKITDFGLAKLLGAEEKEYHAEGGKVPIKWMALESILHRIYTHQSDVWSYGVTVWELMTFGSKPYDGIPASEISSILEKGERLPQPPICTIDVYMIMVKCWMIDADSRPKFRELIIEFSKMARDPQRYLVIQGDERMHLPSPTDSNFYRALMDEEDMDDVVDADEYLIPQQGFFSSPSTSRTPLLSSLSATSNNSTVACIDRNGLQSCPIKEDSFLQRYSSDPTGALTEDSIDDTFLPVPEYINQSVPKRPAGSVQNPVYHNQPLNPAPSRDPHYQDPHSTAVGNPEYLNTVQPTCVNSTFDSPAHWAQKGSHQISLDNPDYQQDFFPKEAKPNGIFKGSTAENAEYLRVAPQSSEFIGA
- Assay Comment: Inhibitor activity on EGFR phosphorylation (pEGFR AlphaLISA, 2 h), Ba/F3 EGFR exon 20 NPG insertion
- Experimental Context: Ba/F3 EGFR exon 20 NPG Ins D770_N771

Compound | Value
COc1c(Cl)cccc1Nc1c(-c2ccncc2C#CC2(C(F)(F)F)CC2)[nH]c2c1C(=O)NCC2 [compound 528] | < 100 nM
COc1c(Cl)cccc1Nc1c(-c2ccncc2C#CC2(C(F)F)CC2)[nH]c2c1C(=O)NCC2 [compound 546] | < 100 nM
COc1c(Cl)cccc1Nc1c(-c2ccncc2OC[C@@H]2CN(C(C)=O)CCO2)[nH]c2c1C(=O)NCC2 [compound 195] | < 100 nM

q: // returns reported IC50 for input COc1c(Cl)cccc1Nc1c(-c2ccncc2OC[C@H]2CCCN2C(C)=O)[nH]c2c1C(=O)NCC2 [Compound 141b]
a: < 100 nM

q: // returns reported IC50 for input C=CC(=O)N1CCC[C@H]1COc1cnccc1-c1[nH]c2c(c1Nc1cccc(F)c1OC)C(=O)NCC2 [compound 212]
a: < 100 nM

q: // returns reported IC50 for input COc1c(F)cccc1Nc1c(-c2ccncc2OCc2nnc3n2CCC3)[nH]c2c1C(=O)NCC2 [Compound 131]
a: > 1000 nM

q: // returns reported IC50 for input COc1c(Cl)cccc1Nc1c(-c2ccncc2OC[C@H]2CCCN2S(C)(=O)=O)[nH]c2c1C(=O)NCC2 [Compound 142b]
a: < 100 nM

q: // returns reported IC50 for input COc1c(Cl)cccc1Nc1c(-c2ccncc2OC[C@@H]2CCCN2C(C)=O)[nH]c2c1C(=O)NCC2 [Compound 141a]
a: 100 to 1000 nM
